- TARGET: T1, Pla1RRM with the charge reversal mutation K368E (S. pombe, UniProt Q10295 352-566, K368E)
- T1 sequence: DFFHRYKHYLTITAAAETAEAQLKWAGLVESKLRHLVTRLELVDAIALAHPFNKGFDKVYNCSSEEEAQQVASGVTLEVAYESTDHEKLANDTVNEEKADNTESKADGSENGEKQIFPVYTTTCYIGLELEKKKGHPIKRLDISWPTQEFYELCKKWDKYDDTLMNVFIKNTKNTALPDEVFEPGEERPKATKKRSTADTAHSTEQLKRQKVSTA
- MEASUREMENT NOTES: ITC
MEASURED METRIC: pKd
To interpret pKd, take it as minus log10 of a concentration measured in moles per litre.

Incoming: Find the recorded pKd belonging to Red1 residues 288-345 (Pla1 interaction region), purified (domain or fragment, S. pombe, UniProt Q9UTR8 288-345, looked up, source: E. coli BL21 (DE3), purified (His-Trap, TEV cleavage, second IMAC, Superdex 75); not shown: GB1, N-terminal, cleaved; His6, C-terminal, kept) ISLPLLKQDDWLSSSKPFGSSTPNVVIEFDSDDDGDDFSNSKIEQSNLEKPPSNSENG and report it.
Outgoing: 4.75
